Tested on: HS 578T
MEASUREMENT DESCRIPTION: NCI 60 antitumor screening (single dose)
Assay type: cell-based
CONDITION DETAILS: Homo sapiens; HS 578T (breast cancer), single dose 10 μM; read-out: Growth inhibition percentage (GI %)
Measured inhibition at 10 µM accompanies every entry in the list below.

Some entries whose results are on file:
MOLECULE | inhibition at 10 µM
Fc1cccc(/C=N/Nc2nc(N/N=C/c3cccc(F)c3)nc(N3CCCCC3)n2)c1 | -13.2%
Oc1ccc(/C=N/Nc2nc(N/N=C/c3ccc(O)c(O)c3)nc(N3CCOCC3)n2)cc1O | -5.42%
O=C1Nc2ccc(Cl)cc2/C1=N\Nc1nc(N/N=C2/C(=O)Nc3ccc(Cl)cc32)nc(N2CCOCC2)n1 | 108%
Fc1cccc(Cl)c1/C=N/Nc1nc(N/N=C/c2c(F)cccc2Cl)nc(N2CCCCC2)n1 | 66.7%
COC(=O)C(Cc1ccccc1)Nc1nc(NC(Cc2ccccc2)C(=O)OC)nc(N2CCOCC2)n1 (stereo not shown) | -1.3%
Fc1cccc(/C=N/Nc2nc(N/N=C/c3cccc(F)c3)nc(N3CCOCC3)n2)c1 | -0.4%
Brc1ccccc1/C=N/Nc1nc(N/N=C/c2ccccc2Br)nc(N2CCOCC2)n1 | -14.4%
C/C(=N\Nc1nc(N/N=C(\C)c2ccc([N+](=O)[O-])cc2)nc(N2CCOCC2)n1)c1ccc([N+](=O)[O-])cc1 | 21.3%
Oc1ccccc1/C=N/Nc1nc(N/N=C/c2ccccc2O)nc(N2CCOCC2)n1 | 53%
Oc1ccc(/C=N/Nc2nc(N/N=C/c3ccc(O)c(O)c3)nc(N3CCCCC3)n2)cc1O | -6.08%

Could you now consider this next molecule?
Query :: inhibition at 10 µM for `Clc1cccc(/C=N/Nc2nc(N/N=C/c3cccc(Cl)c3Cl)nc(N3CCCCC3)n2)c1Cl` ?
Result :: 15%

====

Tested on: MCF7
MEASUREMENT DESCRIPTION: NCI 60 antitumor screening (single dose)
Assay type: cell-based
CONDITION DETAILS: Homo sapiens; MCF7 (breast cancer), single dose 10 μM; read-out: Growth inhibition percentage (GI %)
compounds and their reported inhibition at 10 µM
Field format: number, assumed %, no unit text.

COMPOUND | DISPLAY UNIT | DATA VALUE
C(=N\Nc1nc(N/N=C/c2ccc3c(c2)OCO3)nc(N2CCCCC2)n1)/c1ccc2c(c1)OCO2 | % | 45.2
Brc1cccc(/C=N/Nc2nc(N/N=C/c3cccc(Br)c3)nc(N3CCOCC3)n2)c1 | % | 77.9
Oc1ccc(/C=N/Nc2nc(N/N=C/c3ccc(O)c(O)c3)nc(N3CCOCC3)n2)cc1O | % | 5.79
Fc1cccc(/C=N/Nc2nc(N/N=C/c3cccc(F)c3)nc(N3CCCCC3)n2)c1 | % | 26.7
O=[N+]([O-])c1cccc(/C=N/Nc2nc(N/N=C/c3cccc([N+](=O)[O-])c3)nc(N3CCCCC3)n2)c1 | % | 38.7
COC(=O)C(Cc1ccccc1)Nc1nc(NC(Cc2ccccc2)C(=O)OC)nc(N2CCOCC2)n1 (stereo not shown) | % | 2.21

Now take the following compound into account.
Query :: I am curious: what inhibition at 10 µM value has been reported for `C/C(=N\Nc1nc(N/N=C(\C)c2ccc([N+](=O)[O-])cc2)nc(N2CCOCC2)n1)c1ccc([N+](=O)[O-])cc1` ?
Result :: 25.9

====

System: IGROV1
MEASUREMENT DESCRIPTION: NCI 60 antitumor screening (single dose / five doses)
Assay type: cell-based
CONDITION DETAILS: Homo sapiens, IGROV-1, read-out: Growth inhibition percentage (GI %)
Label Condition met for high-side inhibition at 10 µM (at or above 7%) and Condition not met for low-side inhibition at 10 µM (below it).

A selection of reference data follows.
STRUCTURE SMILES STRING | DISCRETE LABEL
O=[N+]([O-])c1cccc(/C=N/Nc2nc(N/N=C/c3cccc([N+](=O)[O-])c3)nc(N3CCCCC3)n2)c1 | Condition met
O=[N+]([O-])c1cc(/C=N/Nc2nc(N/N=C/c3ccc(Cl)c([N+](=O)[O-])c3)nc(N3CCOCC3)n2)ccc1Cl | Condition met
O=[N+]([O-])c1cc(/C=N/Nc2nc(N/N=C/c3ccc(Cl)c([N+](=O)[O-])c3)nc(N3CCCCC3)n2)ccc1Cl | Condition met
O=[N+]([O-])c1cccc(/C=N/Nc2nc(N/N=C/c3cccc([N+](=O)[O-])c3)nc(N3CCOCC3)n2)c1 | Condition met

Next item in the queue.
Query :: Check if inhibition at 10 µM >= 7% (inclusive). Item: `C/C(=N\Nc1nc(N/N=C(\C)c2ccc([N+](=O)[O-])cc2)nc(N2CCOCC2)n1)c1ccc([N+](=O)[O-])cc1`
Result :: Condition not met

====

Tested on: SF-539
MEASUREMENT DESCRIPTION: NCI 60 antitumor screening (single dose / five doses)
Type: cell-based
CONDITION DETAILS: Homo sapiens; SF-539 (CNS cancer), single dose 10 μM; read-out: Growth inhibition percentage (GI %)
Kindly return satisfied if reported inhibition at 10 µM is no lower than 20%; return not satisfied if it is lower.

// below: answered compounds
STRUCTURE SMILES STRING | ASSAY SYSTEM | DISCRETE LABEL
C(=N\Nc1nc(N/N=C/c2ccc3c(c2)OCO3)nc(N2CCOCC2)n1)/c1ccc2c(c1)OCO2 | SF-539 | not satisfied
Oc1ccccc1/C=N/Nc1nc(N/N=C/c2ccccc2O)nc(N2CCCCC2)n1 | SF-539 | satisfied
O=C1Nc2ccc(Cl)cc2/C1=N\Nc1nc(N/N=C2/C(=O)Nc3ccc(Cl)cc32)nc(N2CCOCC2)n1 | SF-539 | satisfied
Clc1cccc(/C=N/Nc2nc(N/N=C/c3cccc(Cl)c3Cl)nc(N3CCCCC3)n2)c1Cl | SF-539 | not satisfied

Query :: Could you please find out whether `Fc1cccc(Cl)c1/C=N/Nc1nc(N/N=C/c2c(F)cccc2Cl)nc(N2CCCCC2)n1` has inhibition at 10 µM that meets 20% or exceeds it?
Result :: satisfied

Query :: Reported inhibition at 10 µM at or above 20%? `C(=N\Nc1nc(N/N=C/c2ccc3c(c2)OCO3)nc(N2CCCCC2)n1)/c1ccc2c(c1)OCO2`
Result :: not satisfied

Query :: Form field: inhibition at 10 µM at least 20%? Entry: `Brc1ccccc1/C=N/Nc1nc(N/N=C/c2ccccc2Br)nc(N2CCOCC2)n1`
Result :: not satisfied

Query :: Record `Fc1cccc(/C=N/Nc2nc(N/N=C/c3cccc(F)c3)nc(N3CCCCC3)n2)c1` ; criterion: inhibition at 10 µM no lower than 20%. Met?
Result :: not satisfied

====

Test system: BT-549
MEASUREMENT DESCRIPTION: NCI 60 antitumor screening (single dose / five doses)
Format: cell-based
CONDITION DETAILS: Homo sapiens; BT-549, five doses (0.01–100 μM); read-out: GI50
OUTCOME MEASURE: GI50 (µM)
Return type: number; implicit unit µM.

Here is how some compounds turned out for GI50.
STRUCTURE SMILES STRING | DISPLAY UNIT | GI50
Brc1cccc(/C=N/Nc2nc(N/N=C/c3cccc(Br)c3)nc(N3CCOCC3)n2)c1 | µM | 3.54
Oc1ccccc1/C=N/Nc1nc(N/N=C/c2ccccc2O)nc(N2CCOCC2)n1 | µM | 5.19
Clc1cccc(/C=N/Nc2nc(N/N=C/c3cccc(Cl)c3)nc(N3CCOCC3)n2)c1 | µM | 3.22

Query :: Suppose we examine the compound `Fc1cccc(Cl)c1/C=N/Nc1nc(N/N=C/c2c(F)cccc2Cl)nc(N2CCCCC2)n1` ; what GI50 value has been reported?
Result :: 4.45

Query :: Query: GI50; subject: `CN(C)c1ccc(/C=N/Nc2nc(N/N=C/c3ccc(N(C)C)cc3)nc(N3CCCCC3)n2)cc1`
Result :: 1.55

====

Test system: SF-268
MEASUREMENT DESCRIPTION: NCI 60 antitumor screening (single dose)
Assay type: cell-based
CONDITION DETAILS: Homo sapiens; SF-268 (CNS cancer), single dose 10 μM; read-out: Growth inhibition percentage (GI %)
Quick rule: inhibition at 10 µM of at least 10% means TRUE, below that means FALSE.

Completed entries (count: 5):
STRUCTURE SMILES STRING | ASSAY SYSTEM | DISCRETE LABEL
Clc1cccc(/C=N/Nc2nc(N/N=C/c3cccc(Cl)c3)nc(N3CCCCC3)n2)c1 | SF-268 | FALSE
Brc1cccc(/C=N/Nc2nc(N/N=C/c3cccc(Br)c3)nc(N3CCOCC3)n2)c1 | SF-268 | TRUE
Clc1cccc(/C=N/Nc2nc(N/N=C/c3cccc(Cl)c3Cl)nc(N3CCCCC3)n2)c1Cl | SF-268 | TRUE
O=C(NNc1nc(NNC(=O)c2ccccc2)nc(N2CCOCC2)n1)c1ccccc1 | SF-268 | FALSE
C(=N\Nc1nc(N/N=C/c2ccc3c(c2)OCO3)nc(N2CCCCC2)n1)/c1ccc2c(c1)OCO2 | SF-268 | FALSE

Query :: Please tell me: is the compound `C/C(=N\Nc1nc(N/N=C(\C)c2ccc([N+](=O)[O-])cc2)nc(N2CCOCC2)n1)c1ccc([N+](=O)[O-])cc1` at or over 10% in terms of inhibition at 10 µM?
Result :: FALSE

Query :: State whether the measured inhibition at 10 µM reaches 10%, counting equality as reaching it, for `Clc1cccc(/C=N/Nc2nc(N/N=C/c3cccc(Cl)c3Cl)nc(N3CCOCC3)n2)c1Cl`
Result :: TRUE
